pKi: −log10 of the molar value.
The following molecules were reported with pKi values on Tyrosine-protein kinase JAK3 (Homo sapiens, UniProt P52333) in different studies.

Example entries and their recorded answers appear below.
O=C(NC1CCCC1)c1cc(-c2ncnc3[nH]ccc23)c[nH]1	> 7.00
O=C(NCC(F)(F)F)C1CN(c2nc(-c3c[nH]c4ncncc34)ncc2F)C1	< 5.30
CCN(C)C(=O)[C@H]1CCCN1c1nc(-c2c[nH]c3ncc(Cl)cc23)ncc1F	≤ 7.00
O=C(CC1CCCC1)Nc1cc(-n2cnc(Nc3ccccc3)n2)ccn1	6.00 to 8.00
C[C@H](Nc1cc(-c2cnn3cccnc23)nc(OC2CCN(C)CC2)n1)c1ccc(F)cc1F	6.30 to 7.00

[in] Identify measured pKi obtained with Tyrosine-protein kinase JAK3 (Homo sapiens, UniProt P52333) for C#CCN(C(=O)c1cc(-c2ncnc3[nH]ccc23)c[nH]1)C1CCCCC1 .
[out] 6.30 to 7.00

[in] Fill in pKi for O=C(c1coc(-c2ncnc3[nH]ccc23)c1)N(CCC(F)(F)F)CC1CC1 tested with Tyrosine-protein kinase JAK3 (Homo sapiens, UniProt P52333).
[out] 6.30 to 7.00

###

Target or system Tyrosine-protein kinase JAK3 (Homo sapiens, UniProt P52333); metric Ki; compiled from varied reports.

Worked cases, answers included:
C[C@H](Nc1cc(-c2c(N)nn3cccnc23)nc(S(C)(=O)=O)n1)c1ccc(F)cc1F	< 10 nM
Cc1cnc2c(-c3cc(NC4CCCC4)ncn3)c(N)nn2c1	500 to 5000 nM
Nc1nc(Nc2ccc(F)cc2)nn1-c1cc(N2CCC[C@@H]2C(=O)NCC(F)(F)F)ncn1	≤ 1000 nM
Fc1cccc(-n2cnnc2-c2c[nH]c3ncc(-c4ccc(NCC5CCCO5)nc4)cc23)c1F (stereo not shown)	200 to 1000 nM
CS(=O)(=O)n1ccc2cc(-c3cnc4[nH]cc(-c5oncc5-c5cccc(F)c5F)c4c3)cnc21	200 to 1000 nM

[in] Please indicate Ki recorded for CS(=O)(=O)Nc1cccc(-c2cnc3c(-c4ccccn4)c(N)nn3c2)c1
[out] > 5000 nM

[in] Give the reported Ki for this molecule. COc1ccc(-c2cnc3c(-c4ccccc4)c(N)nn3c2)cc1
[out] > 5000 nM

[in] For CNc1cc(-c2c(N)nn3cc(-c4ccncc4)cnc23)ncn1 , write its Ki.
[out] < 500 nM

[in] # return recorded Ki for entry Fc1ccc(F)c(C2Nc3ccccc3-c3ccnc4[nH]cc2c34)c1F (stereo not shown)
[out] ≤ 250 nM

[in] Dear colleague, please send me the reported Ki for CC[C@@H](Nc1ccnc(-c2c[nH]c3ncncc23)n1)C(=O)NCC(F)(F)F when you can.
[out] < 500 nM

[in] Identify measured Ki associated with O=C(Nc1nc(-c2ncnc3[nH]ccc23)cs1)C1CCCOC1 (stereo not shown)
[out] < 100 nM

[in] Consider the molecule CC(C)(Nc1nc(-c2c[nH]c3ncncc23)ncc1F)C(=O)NCC(F)(F)F . State its measured Ki.
[out] < 500 nM

[in] Read the entry Nc1nn2cc(-c3cccc(N4CCNCC4)c3)cnc2c1-c1ccccn1 and write its reported Ki.
[out] 500 to 5000 nM

[in] Quick one: give measured Ki for CC1CCCC=C1c1ncnc2[nH]ccc12 (stereo not shown)
[out] < 500 nM

[in] Using known records, supply Ki for CC[C@@H](Nc1cc(-c2c(N)nn3cccnc23)ncn1)c1ccc(F)cc1F
[out] 10 to 100 nM

[in] Return reported Ki. Input molecule: Nc1nn2cc(-c3ccncc3)cnc2c1-c1cc(N2CCCCC2)ncn1
[out] < 500 nM

[in] State its Ki for this molecule: CN(C)CCN(C)C(=O)c1ccc(-c2cnc3c(Cc4ccccc4)c(N)nn3c2)nc1
[out] > 5000 nM

[in] Specify measured Ki for CC[C@@](C)(Nc1nc(-c2c[nH]c3ncncc23)ncc1F)C(=O)NCC(F)(F)F .
[out] < 500 nM

[in] Indicate its recorded Ki; the molecule in question is O=C(CC(F)(F)F)Nc1nc(-c2ncnc3[nH]ccc23)cs1
[out] < 100 nM

[in] Name the recorded Ki of the item C[C@H](Nc1cc(-c2c(N)nn3cccnc23)nc(OC[C@H]2CO2)n1)c1ccc(F)cc1 in your answer.
[out] 100 to 500 nM

[in] # return recorded Ki for input CCN(Cc1ccccc1)C(=O)c1c(N)nn2cc(-c3ccncn3)cnc12
[out] > 5000 nM

[in] For N#CCCN(Cc1cccnc1)C(=O)c1cc(-c2ncnc3[nH]ccc23)c[nH]1 , write its Ki.
[out] < 100 nM

[in] Respond only with Ki recorded for CCC(CC)NC(=O)c1cc(-c2ncnc3[nH]ccc23)c[nH]1
[out] 100 to 500 nM
